This listing pairs compounds with measured Ratio Ki.
test protocol: Selectivity ratio of Ki for horse serum BuChE to Ki for human erythrocytes AchE

- query smiles: "O=C1/C(=C/C2CCN(Cc3ccccc3)CC2)Cc2ccc(O)cc21"
  Ratio Ki: 1
- query smiles: "O=C1/C(=C/C2CCN(Cc3ccccc3)CC2)Cc2cc3c(cc21)OCO3"
  Ratio Ki: 7
- query smiles: "COc1cc2c(cc1O)C/C(=C\\C1CCN(Cc3ccccc3)CC1)C2=O"
  Ratio Ki: 4

---

# Ratio IC50 listing for each entry below
test protocol: Selectivity ratio of IC50 for horse serum BuChE to IC50 for human erythrocytes AchE
parameter measured: Ratio IC50

- query smiles: "COc1cc2c(cc1O)C(=O)/C(=C/C1CCN(Cc3ccccc3)CC1)C2"
  value measured: 5
- query smiles: "O=C1/C(=C/C2CCN(Cc3ccccc3)CC2)Cc2cc(O)ccc21"
  value measured: 4
- query smiles: "O=C1/C(=C/C2CCN(Cc3ccccc3)CC2)Cc2cccc(O)c21"
  value measured: 7

---

target or system: Acetylcholinesterase (Homo sapiens)
parameter measured: Ki (nM)

- query smiles: "O=C1/C(=C/C2CCN(Cc3ccccc3)CC2)Cc2cc3c(cc21)OCO3"
  unit annotation: "nM"
  value measured: 980

---

target or system: Acetylcholinesterase (Homo sapiens, UniProt P22303)
Sequence (P22303 whole entry): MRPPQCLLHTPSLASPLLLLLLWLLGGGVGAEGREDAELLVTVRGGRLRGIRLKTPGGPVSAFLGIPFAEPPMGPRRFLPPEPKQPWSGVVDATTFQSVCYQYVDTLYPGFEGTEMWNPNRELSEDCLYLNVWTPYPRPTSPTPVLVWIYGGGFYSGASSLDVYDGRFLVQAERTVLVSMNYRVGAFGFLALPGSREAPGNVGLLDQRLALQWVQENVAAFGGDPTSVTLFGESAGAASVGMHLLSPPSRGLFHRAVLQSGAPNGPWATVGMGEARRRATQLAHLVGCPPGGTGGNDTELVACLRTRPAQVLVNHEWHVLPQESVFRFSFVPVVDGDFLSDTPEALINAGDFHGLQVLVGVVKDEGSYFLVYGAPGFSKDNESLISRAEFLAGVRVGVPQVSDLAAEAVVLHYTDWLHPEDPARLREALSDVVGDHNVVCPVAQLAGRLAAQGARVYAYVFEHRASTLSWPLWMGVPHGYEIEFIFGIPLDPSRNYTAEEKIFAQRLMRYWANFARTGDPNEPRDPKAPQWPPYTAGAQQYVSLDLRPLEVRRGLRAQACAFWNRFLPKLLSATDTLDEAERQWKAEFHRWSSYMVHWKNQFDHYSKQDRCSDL
test protocol: Non-competitive inhibition of human erythrocytes AchE using acetylthiocholine iodide as substrate incubated for 20 mins by Lineweaver-Burk plot analysis
pKi: −log10 of the molar value.
parameter measured: pKi

- query smiles: "COc1ccc2c(c1)C/C(=C\\C1CCN(Cc3ccccc3)CC1)C2=O"
  value measured: 7.54
- query smiles: "COc1ccc2c(c1)C(=O)/C(=C/C1CCN(Cc3ccccc3)CC1)C2"
  value measured: 6.59
- query smiles: "COc1cc2c(cc1O)C(=O)/C(=C/C1CCN(Cc3ccccc3)CC1)C2"
  value measured: 5.55
- query smiles: "O=C1/C(=C/C2CCN(Cc3ccccc3)CC2)Cc2cc(O)ccc21"
  value measured: 5.70
- query smiles: "COc1cccc(CN2CCC(/C=C3\\Cc4cccc(OC)c4C3=O)CC2)c1"
  value measured: 4.76
- query smiles: "COc1cc2c(cc1O)C/C(=C\\C1CCN(Cc3ccccc3)CC1)C2=O"
  value measured: 5.55
- query smiles: "COc1cc2c(cc1OC)C(=O)/C(=C/C1CCN(Cc3ccccc3)CC1)C2"
  value measured: 7.46
- query smiles: "COc1cccc(CN2CCC(/C=C3\\Cc4ccc(OC)cc4C3=O)CC2)c1"
  value measured: 3.92
- query smiles: "COc1cccc2c1C(=O)/C(=C/C1CCN(Cc3ccccc3)CC1)C2"
  value measured: 5.74
- query smiles: "COc1cccc(CN2CCC(/C=C3\\Cc4cc(OC)ccc4C3=O)CC2)c1"
  value measured: 6.26
- query smiles: "O=C1/C(=C/C2CCN(Cc3ccccc3)CC2)Cc2ccc(O)cc21"
  value measured: 5.37
- query smiles: "O=C1/C(=C/C2CCN(Cc3ccccc3)CC2)Cc2cccc(O)c21"
  value measured: 6.45

---

target or system: Beta-secretase 1 (Mus musculus, UniProt P56818)
Sequence (P56818 whole entry): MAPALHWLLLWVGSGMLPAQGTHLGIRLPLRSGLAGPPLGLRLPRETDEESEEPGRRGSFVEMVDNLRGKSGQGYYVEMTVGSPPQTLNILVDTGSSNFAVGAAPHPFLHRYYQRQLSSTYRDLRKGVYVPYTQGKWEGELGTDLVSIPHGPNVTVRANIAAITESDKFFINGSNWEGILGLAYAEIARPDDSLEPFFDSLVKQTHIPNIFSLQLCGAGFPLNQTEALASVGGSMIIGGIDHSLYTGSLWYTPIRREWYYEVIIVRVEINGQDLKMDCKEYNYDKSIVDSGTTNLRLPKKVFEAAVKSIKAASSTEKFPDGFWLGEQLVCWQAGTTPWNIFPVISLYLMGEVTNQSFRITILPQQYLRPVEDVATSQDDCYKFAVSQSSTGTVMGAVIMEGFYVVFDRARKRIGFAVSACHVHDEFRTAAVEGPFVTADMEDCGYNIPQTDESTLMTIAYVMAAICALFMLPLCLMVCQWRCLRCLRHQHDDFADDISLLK
parameter measured: IC50

- query smiles: "O=C1/C(=C/C2CCN(Cc3ccccc3)CC2)Cc2cccc(O)c21"
  value measured: "< 1000 nM"
- query smiles: "COc1ccc2c(c1)C/C(=C\\C1CCN(Cc3ccccc3)CC1)C2=O"
  value measured: "< 1000 nM"
- query smiles: "COc1cccc(CN2CCC(/C=C3\\Cc4cc(OC)ccc4C3=O)CC2)c1"
  value measured: "< 1000 nM"
- query smiles: "O=C1/C(=C/C2CCN(Cc3ccccc3)CC2)Cc2cc3c(cc21)OCO3"
  value measured: "< 1000 nM"
- query smiles: "O=C1/C(=C/C2CCN(Cc3ccccc3)CC2)Cc2cc(O)ccc21"
  value measured: "< 1000 nM"
- query smiles: "COc1cc2c(cc1OC)C(=O)/C(=C/C1CCN(Cc3ccccc3)CC1)C2"
  value measured: "< 1000 nM"

---

# key: entry, value: IC50
target or system: Acetylcholinesterase (Homo sapiens)

- query smiles: "COc1cccc(CN2CCC(/C=C3\\Cc4cc(OC)ccc4C3=O)CC2)c1"
  target or system: "Acetylcholinesterase (Homo sapiens)"
  IC50 (nM): 853
- query smiles: "O=C1/C(=C/C2CCN(Cc3ccccc3)CC2)Cc2cccc(O)c21"
  target or system: "Acetylcholinesterase (Homo sapiens)"
  IC50 (nM): 636
- query smiles: "COc1ccc2c(c1)C(=O)/C(=C/C1CCN(Cc3ccccc3)CC1)C2"
  target or system: "Acetylcholinesterase (Homo sapiens)"
  IC50 (nM): 342
- query smiles: "COc1cc2c(cc1O)C/C(=C\\C1CCN(Cc3ccccc3)CC1)C2=O"
  target or system: "Acetylcholinesterase (Homo sapiens)"
  IC50 (nM): 1540
- query smiles: "COc1cccc(CN2CCC(/C=C3\\Cc4cccc(OC)c4C3=O)CC2)c1"
  target or system: "Acetylcholinesterase (Homo sapiens)"
  IC50 (nM): 12200
- query smiles: "COc1cc2c(cc1OC)C(=O)/C(=C/C1CCN(Cc3ccccc3)CC1)C2"
  target or system: "Acetylcholinesterase (Homo sapiens)"
  IC50 (nM): 58
- query smiles: "COc1cccc2c1C(=O)/C(=C/C1CCN(Cc3ccccc3)CC1)C2"
  target or system: "Acetylcholinesterase (Homo sapiens)"
  IC50 (nM): 1510
- query smiles: "COc1cc2c(cc1O)C(=O)/C(=C/C1CCN(Cc3ccccc3)CC1)C2"
  target or system: "Acetylcholinesterase (Homo sapiens)"
  IC50 (nM): 1540
- query smiles: "O=C1/C(=C/C2CCN(Cc3ccccc3)CC2)Cc2cc3c(cc21)OCO3"
  target or system: "Acetylcholinesterase (Homo sapiens)"
  IC50 (nM): 755
- query smiles: "O=C1/C(=C/C2CCN(Cc3ccccc3)CC2)Cc2ccc(O)cc21"
  target or system: "Acetylcholinesterase (Homo sapiens)"
  IC50 (nM): 1500
- query smiles: "O=C1/C(=C/C2CCN(Cc3ccccc3)CC2)Cc2cc(O)ccc21"
  target or system: "Acetylcholinesterase (Homo sapiens)"
  IC50 (nM): 2160
- query smiles: "COc1cccc(CN2CCC(/C=C3\\Cc4ccc(OC)cc4C3=O)CC2)c1"
  target or system: "Acetylcholinesterase (Homo sapiens)"
  IC50 (nM): 34500
- query smiles: "COc1ccc2c(c1)C/C(=C\\C1CCN(Cc3ccccc3)CC1)C2=O"
  target or system: "Acetylcholinesterase (Homo sapiens)"
  IC50 (nM): 43

---

test protocol: Selectivity ratio of IC50 for horse serum BuChE to IC50 for human erythrocytes AchE

- query smiles: "COc1cccc2c1C(=O)/C(=C/C1CCN(Cc3ccccc3)CC1)C2"
  bound sign: "="
  Ratio IC50: 1
- query smiles: "COc1cc2c(cc1O)C/C(=C\\C1CCN(Cc3ccccc3)CC1)C2=O"
  bound sign: "="
  Ratio IC50: 5
- query smiles: "COc1ccc2c(c1)C(=O)/C(=C/C1CCN(Cc3ccccc3)CC1)C2"
  bound sign: "="
  Ratio IC50: 8
- query smiles: "COc1cc2c(cc1OC)C(=O)/C(=C/C1CCN(Cc3ccccc3)CC1)C2"
  bound sign: "="
  Ratio IC50: 81
- query smiles: "O=C1/C(=C/C2CCN(Cc3ccccc3)CC2)Cc2cc3c(cc21)OCO3"
  bound sign: "="
  Ratio IC50: 20
- query smiles: "COc1cccc(CN2CCC(/C=C3\\Cc4cc(OC)ccc4C3=O)CC2)c1"
  bound sign: "="
  Ratio IC50: 3
- query smiles: "O=C1/C(=C/C2CCN(Cc3ccccc3)CC2)Cc2ccc(O)cc21"
  bound sign: "="
  Ratio IC50: 4
- query smiles: "COc1ccc2c(c1)C/C(=C\\C1CCN(Cc3ccccc3)CC1)C2=O"
  bound sign: "="
  Ratio IC50: 132
- query smiles: "COc1cccc(CN2CCC(/C=C3\\Cc4cccc(OC)c4C3=O)CC2)c1"
  bound sign: "<"
  Ratio IC50: 1
- query smiles: "COc1cccc(CN2CCC(/C=C3\\Cc4ccc(OC)cc4C3=O)CC2)c1"
  bound sign: "<"
  Ratio IC50: 1

---

target or system: Cholinesterase (Equus caballus)
Sequence (P81908 whole entry): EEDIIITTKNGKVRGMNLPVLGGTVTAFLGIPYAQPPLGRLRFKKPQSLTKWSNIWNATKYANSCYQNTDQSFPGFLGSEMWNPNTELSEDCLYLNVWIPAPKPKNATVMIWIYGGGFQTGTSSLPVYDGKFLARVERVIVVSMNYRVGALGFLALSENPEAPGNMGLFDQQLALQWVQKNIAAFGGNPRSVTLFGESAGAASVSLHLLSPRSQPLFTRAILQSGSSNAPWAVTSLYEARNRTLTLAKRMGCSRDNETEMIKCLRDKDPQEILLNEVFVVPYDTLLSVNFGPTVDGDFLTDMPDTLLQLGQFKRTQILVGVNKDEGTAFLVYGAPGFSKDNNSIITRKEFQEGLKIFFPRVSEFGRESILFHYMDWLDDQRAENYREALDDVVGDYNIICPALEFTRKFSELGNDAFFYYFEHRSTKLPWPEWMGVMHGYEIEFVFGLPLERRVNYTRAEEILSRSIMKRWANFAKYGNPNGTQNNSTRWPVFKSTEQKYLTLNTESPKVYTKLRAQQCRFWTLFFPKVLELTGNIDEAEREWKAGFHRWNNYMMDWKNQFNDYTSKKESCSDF
test protocol: Mixed inhibition of horse serum BuChE using butyrylthiocoline iodide as substrate incubated for 20 mins by Lineweaver-Burk plot analysis
pKi: −log10 of the molar value.
The entries below come with measured pKi values attached.

- query smiles: "O=C1/C(=C/C2CCN(Cc3ccccc3)CC2)Cc2cc(O)ccc21"
  pKi: 5.07
- query smiles: "COc1cccc2c1C(=O)/C(=C/C1CCN(Cc3ccccc3)CC1)C2"
  pKi: 5.51
- query smiles: "COc1cc2c(cc1OC)C(=O)/C(=C/C1CCN(Cc3ccccc3)CC1)C2"
  pKi: 5.61
- query smiles: "O=C1/C(=C/C2CCN(Cc3ccccc3)CC2)Cc2cccc(O)c21"
  pKi: 5.19
- query smiles: "COc1ccc2c(c1)C(=O)/C(=C/C1CCN(Cc3ccccc3)CC1)C2"
  pKi: 5.94
